Attribute: Z score
# Tested on: murine neural precursor cells (neurosphere cultures)
# measurementNotes: HTS of LOPAC library against secondary neurosphere cultures, MTT proliferation assay at 3 μM, day 7 (z score, P value)
# Type: cell-based, mouse
# condition: 168 h, 3 µM
Counter-ions that a name gives are not always drawn.

compound	assaySystem	Z score
CN1CCN(CCCN2c3ccccc3Sc3ccc(C(F)(F)F)cc32)CC1 [Trifluoperazine dihydrochloride]	murine neural precursor cells (neurosphere cultures)	−9.305
CC#C[C@]1(O)CC[C@H]2[C@@H]3CCC4=CC(=O)CCC4=C3[C@@H](c3ccc(N(C)C)cc3)C[C@@]21C	murine neural precursor cells (neurosphere cultures)	−1.970
Cn1c(=O)c2c(nc(C=Cc3cccc(Cl)c3)n2C)n(C)c1=O	murine neural precursor cells (neurosphere cultures)	−1.214
O=C(O)C1CCNCC1	murine neural precursor cells (neurosphere cultures)	−0.457
COc1cc(C(O)C(=O)O)ccc1O (racemic) [(±)-Vanillylmandelic acid]	murine neural precursor cells (neurosphere cultures)	−1.811
NC(=O)c1ccccc1 [Benzamide]	murine neural precursor cells (neurosphere cultures)	0.550
CNC(=O)c1cc2c(cn1)[nH]c1ccccc12 [N-Methyl-beta-carboline-3-carboxamide]	murine neural precursor cells (neurosphere cultures)	0.699
CC(C)[N+](C)(CCOC(=O)C1c2ccccc2Oc2ccccc21)C(C)C [Propantheline bromide]	murine neural precursor cells (neurosphere cultures)	−1.534
CN1CCC[C@@H]1CCO[C@](C)(c1ccccc1)c1ccc(Cl)cc1 [Clemastine fumarate]	murine neural precursor cells (neurosphere cultures)	−2.023
O=c1[nH]c(=O)n([C@H]2C[C@H](O)[C@@H](CO)O2)cc1/C=C/Br [(E)-5-(2-Bromovinyl)-2′-deoxyuridine]	murine neural precursor cells (neurosphere cultures)	−2.123

Proceeding to the next compound to report its Z score.
Answer with reported Z score of NCCCCNS(=O)(=O)c1ccc2c(Cl)cccc2c1
−0.923

====

# Tested on: murine neural precursor cells (neurosphere cultures)
# measurementNotes: HTS of LOPAC library against secondary neurosphere cultures, MTT proliferation assay at 3 μM, day 7 (z score, P value)
# Assay type: cell-based, mouse
# condition: LOPAC primary screen, neurosphere MTT proliferation, 3 μM, day 7
Counter-ions that a name gives are not always drawn.
assayEndpoint: Z score

compound	Z score
C#CCOC(=O)C1=CCCN(C)C1 [Arecaidine propargyl ester hydrobromide]	−9.931
C#CCN(C)CCCOc1ccc(Cl)cc1Cl [Clorgyline hydrochloride]	1.520
CCCN1CCC[C@H](c2cccc(O)c2)C1.Cl [R(+)-3PPP hydrochloride]	−2.213

Answer with reported Z score of CC(N)(C(=O)O)c1ccc(C(=O)O)cc1 (racemic) [(±)-alpha-Methyl-4-carboxyphenylglycine]
0.727

Answer with reported Z score of CC(=N)NCCC[C@H](N)C(=O)O.Cl
−0.934

Answer with reported Z score of CCCCCCCC/C=C\CCCCCCCC(=O)O
−0.345

====

# System: murine neural precursor cells (neurosphere cultures)
# measurementNotes: HTS of LOPAC library against secondary neurosphere cultures, MTT proliferation assay at 3 μM, day 7 (z score, P value)
# Type: cell-based, mouse
# condition: LOPAC library screen, 3 μM, MTT, neurosphere cultures
Counter-ions that a name gives are not always drawn.
assayEndpoint: Z Score
Respond numerically, and do not add a unit to the figure.

Answer with reported Z Score of CCCCS(=N)(=O)CCC(N)C(=O)O [L-Buthionine-sulfoximine]
0.5134

Answer with reported Z Score of CC1=NS(=O)(=O)c2cc(Cl)ccc2N1 [Diazoxide]
0.04511

Answer with reported Z Score of CN(C)c1ccc(O)c2c1C[C@H]1C[C@H]3[C@H](N(C)C)C(O)=C(C(N)=O)C(=O)[C@@]3(O)C(O)=C1C2=O [Minocycline hydrochloride]
0.4419

Answer with reported Z Score of Clc1cccc(Cl)c1N=C1NCCN1 [Clonidine hydrochloride]
1.041

Answer with reported Z Score of Nc1ncnc2c1nc(Sc1ccc(Cl)cc1)n2C1OC2COP(=O)(O)OC2C1O (stereo in doubt) [8-(4-Chlorophenylthio)-cAMP sodium]
1.217

Answer with reported Z Score of C[C@H](O)[C@H](O)[C@H]1CNc2nc(N)[nH]c(=O)c2N1.Cl
0.9757

Answer with reported Z Score of O=C(O)CCC(=O)N1CCC[C@H]1C(=O)O [N-Succinyl-L-proline]
0.7246

====

# Test system: murine neural precursor cells (neurosphere cultures)
# measurementNotes: HTS of LOPAC library against secondary neurosphere cultures, MTT proliferation assay at 3 μM, day 7 (z score, P value)
# Assay type: cell-based, mouse
# condition: LOPAC primary screen, neurosphere MTT proliferation, 3 μM, day 7
Where a name gives a salt, the structure may show the parent alone.
Binarize Z score at -0.2; below is yes, at or above is no.

Worked examples, 2 compounds total:
compound	assignedClass
N=C(N)NC(=O)c1nc(Cl)c(N)nc1N [Amiloride hydrochloride]	yes
CCCn1cnc2c1c(=O)n(CCCCC(C)=O)c(=O)n2C [Propentofylline]	no

Please indicate whether the reported Z score of O=Nc1ccc2oc(=O)ccc2c1 [6-Nitroso-1,2-benzopyrone] is strictly below -0.2.
no

Please indicate whether the reported Z score of CCCCN1CCC(COC(=O)c2cc(Cl)c(N)c3c2OCCO3)CC1.Cl [SB 204070 hydrochloride] is strictly below -0.2.
yes

Please indicate whether the reported Z score of O=C(O)c1cc(=O)c2c(Cl)cc(Cl)cc2[nH]1 [5,7-Dichlorokynurenic acid] is strictly below -0.2.
no

Please indicate whether the reported Z score of C[C@@H]1O[C@@H]1P(=O)([O-])[O-].[Na+].[Na+] [Phosphomycin disodium] is strictly below -0.2.
yes

Please indicate whether the reported Z score of CC(=O)OCC1=C(C(=O)[O-])N2C(=O)[C@@H](NC(=O)CCC[C@@H](N)C(=O)[O-])[C@H]2SC1.[Zn+2] [Cephalosporin C zinc salt] is strictly below -0.2.
yes

Please indicate whether the reported Z score of Cc1c2ccncc2c(C)c2c1[nH]c1ccccc12 [Ellipiticine] is strictly below -0.2.
yes

Please indicate whether the reported Z score of CCOC(=O)N1CCC(=C2c3ccc(Cl)cc3CCc3cccnc32)CC1 [Loratadine] is strictly below -0.2.
yes

Please indicate whether the reported Z score of CNCC(O)c1ccc(O)c(O)c1.Cl (racemic) [(±)-Epinephrine hydrochloride] is strictly below -0.2.
yes

Please indicate whether the reported Z score of CC/C(=C(\c1ccccc1)c1ccc(OCCN(C)C)cc1)c1ccccc1 [Tamoxifen citrate] is strictly below -0.2.
yes

Please indicate whether the reported Z score of C/C(O)=C(\C#N)C(=O)Nc1cc(Br)ccc1Br [LFM-A13] is strictly below -0.2.
no

Please indicate whether the reported Z score of CCCC(CCC)C(=O)O.[Na] [Valproic acid sodium] is strictly below -0.2.
no

====

# Test system: murine neural precursor cells (neurosphere cultures)
# measurementNotes: HTS of LOPAC library against secondary neurosphere cultures, MTT proliferation assay at 3 μM, day 7 (z score, P value)
# Assay type: cell-based, mouse
# condition: LOPAC primary screen, neurosphere MTT proliferation, 3 μM, day 7
Counter-ions that a name gives are not always drawn.
assayEndpoint: Z score
Respond numerically, and do not add a unit to the figure.

// known answers, use as guide
compound	assayEndpoint	recordedValue
COc1cccc(C(=O)NCCN2CCN(c3ccc(Cl)cc3)CC2)c1	Z score	0.383
Fc1ccc(C(OCCN2CCN(CCCc3ccccc3)CC2)c2ccc(F)cc2)cc1 [GBR-12909 dihydrochloride]	Z score	−10.899
C[C@]12CC[C@@H]3c4ccc(O)cc4CC[C@H]3[C@@H]1CC[C@@H]2O	Z score	−0.562
CN1CCN(c2ccc3ccccc3n2)CC1.O=C(O)/C=C\C(=O)O.O=C(O)/C=C\C(=O)O [Quipazine, N-methyl-, dimaleate]	Z score	−0.325
O=c1onc2cnc3ccccc3n12	Z score	−0.592

Answer with reported Z score of CNCCC(Oc1ccc(C(F)(F)F)cc1)c1ccccc1 (centres unmarked) [Fluoxetine hydrochloride]
−1.311

Answer with reported Z score of C[N+](C)(C)CCCCCC[N+](C)(C)C [Hexamethonium bromide]
−0.820

Answer with reported Z score of CC(C)[C@@]1(NC(=O)[C@@H]2C=C3c4cccc5[nH]cc(c45)C[C@H]3N(C)C2)O[C@@]2(O)[C@@H]3CCCN3C(=O)[C@H](Cc3ccccc3)N2C1=O
0.408

====

# Test system: murine neural precursor cells (neurosphere cultures)
# measurementNotes: HTS of LOPAC library against secondary neurosphere cultures, MTT proliferation assay at 3 μM, day 7 (z score, P value)
# Assay type: cell-based, mouse
Structures can show the parent of a compound that is named as a salt.
assayEndpoint: Z score
Respond numerically, and do not add a unit to the figure.

molecule	Z score
CN1CCc2ccccc2Cc2[nH]c3ccccc3c2CC1 [LE 300]	−1.070

Answer with reported Z score of CC[C@H](CO)Nc1nc(NCc2ccccc2)c2ncn(C(C)C)c2n1 [Roscovitine]
0.003

Answer with reported Z score of CNCCC(Oc1ccccc1OC)c1ccccc1 (stereo not drawn) [Nisoxetine hydrochloride]
0.834

Answer with reported Z score of CSC(=N)N.CSC(=N)N.O=S(=O)(O)O [S-Methylisothiourea hemisulfate]
−0.211

Answer with reported Z score of Cl.NC1(C(=O)O)CC1
−2.401

Answer with reported Z score of Cl.NCCc1ccc(O)c(O)c1 [Dopamine hydrochloride]
1.352

Answer with reported Z score of CC(C)c1cccc(C(C)C)c1O [Propofol]
0.377

Answer with reported Z score of CN1CCCC1c1cccnc1.O=C(O)C(O)C(O)C(=O)O (single isomer, unassigned; (-)) [(−)-Nicotine hydrogen tartrate salt]
0.045

Answer with reported Z score of N[C@@H](Cc1c[nH]c2ccccc12)C(=O)O [L-Tryptophan]
0.224

Answer with reported Z score of CN1[C@@H]2CC[C@H]1C[C@@H](OC(=O)C(CO)c1ccccc1)C2 (stereo partly drawn) [Atropine sulfate]
1.244

Answer with reported Z score of CCN(CC)CC.Nc1ncnc2c1ncn2C1OC2COP(O)(=S)O[C@@H]2[C@@H]1O (stereo partly drawn) [Rp-cAMPS triethylamine]
1.186

Answer with reported Z score of Cl.Cl.NCCc1c[nH]cn1 [Histamine dihydrochloride]
−1.476

Answer with reported Z score of C[N+](C)(C)CCO.[Br-] [Choline bromide]
−0.730

Answer with reported Z score of Cl.Nc1c2c(nc3ccccc13)CCCC2
−1.021

Answer with reported Z score of COC(=O)C1=CCCN(C)C1 [Arecoline hydrobromide]
−0.111
